Test system: ACHN
Assay: NCI tumour cell line growth inhibition, 48 h
Activity calls are given as the source filed them. Rule as the data show it: active = GI50 up to about 1.1 µM and inactive = higher.

{"compound": "CCN(CC)c1oc(N(CC)CC)c(C(=O)Nc2ccccn2)c(=O)c1C(C)=O", "GI50": "> 100 µM (inactive)"}
{"compound": "O=C(O)c1cnc2[nH]ccn2c1=O", "GI50": "> 100 µM (inactive)"}
{"compound": "CCOC(=O)c1ccc2nc3n(c2c1)C(c1c(F)cccc1F)SC3 (configuration not stated)", "GI50": "84.1 µM (inactive)"}
{"compound": "COc1cc(C(C)(C)C)c(OC(=O)/C=C/C(=O)O/C=C/[N+](=O)[O-])c(C(C)(C)C)c1", "GI50": "30.5 µM (inactive)"}
{"compound": "C/C(=N/NC(=S)Nc1ccc(Cl)cc1)c1cccc(/C(C)=N\\NC(=S)Nc2ccc(Cl)cc2)n1", "GI50": "2.54 µM (inactive)"}
{"compound": "CN(CCC(=O)O)S(=O)(=O)c1ccccc1", "GI50": "> 100 µM (inactive)"}
{"compound": "Cc1ccc(C(=O)Nc2ccc(CP(=O)(O)O)cc2CP(=O)(O)O)cc1N", "GI50": "> 100 µM (inactive)"}

Cited source: ChEMBL document CHEMBL1201862
